All figures here come from the OPERA property sets (Mansouri et al. 2018).

Readings of solubility for the listed molecules
# conditions: 20 °C
Reply numerically in mM, unit not repeated.

The following molecules have reported results that may help.
compound | result.units | solubility
Cc1ccco1 | mM | 36.5
CCCCOCCOCCOCCCC | mM | 13.7
CCCCCCOCCO | mM | 67.7

// next item, solubility requested
Field solubility (entry "CCCCOCCOCCCC" ) reads 11.5

* * *

# conditions: 25 °C
Give true (1) when the value for solubility is at least 0.03 mM. Give false (0) when it is less.

compound | label.class
Clc1cccc(-c2c(Cl)ccc(Cl)c2Cl)c1Cl | false (0)
Clc1ccc(-c2c(Cl)ccc(Cl)c2Cl)cc1Cl | false (0)
CCCCCCCOC(=O)c1ccc(N)cc1 | false (0)

Answer whether solubility of "CCCOC(N)=O" is greater than or equal to 0.03 mM.
true (1)

Answer whether solubility of CCCCCC(C)O (stereo not drawn) is greater than or equal to 0.03 mM.
true (1)

Answer whether solubility of "CCCCCCCCOC(=O)c1ccc(N)cc1" is greater than or equal to 0.03 mM.
false (0)

Answer whether solubility of "O=Cc1ccc([N+](=O)[O-])cc1" is greater than or equal to 0.03 mM.
true (1)

Answer whether solubility of "Fc1cccc(F)c1" is greater than or equal to 0.03 mM.
true (1)
